# target_under_test: HIV-1 Env of pseudovirus RHPA4259.7 (HIV-1)
# protocol_notes: cell-based or functional assay
The following binders are listed with their measured neutralization IC80 values.
outcome_measure: neutralization IC80 (µg/mL)

binder	numeric_result
MS-82 (antibody, V domains shown) VH: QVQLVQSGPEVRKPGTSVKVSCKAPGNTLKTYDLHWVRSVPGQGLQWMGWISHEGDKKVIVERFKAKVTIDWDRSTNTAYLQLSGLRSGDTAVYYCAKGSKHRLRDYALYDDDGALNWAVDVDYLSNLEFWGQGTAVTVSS VL: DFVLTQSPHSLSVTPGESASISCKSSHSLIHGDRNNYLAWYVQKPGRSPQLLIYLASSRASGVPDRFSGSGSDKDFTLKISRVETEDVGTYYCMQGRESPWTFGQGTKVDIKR	0.672
MS-88 (antibody, V domains shown) VH: QVQLVQSGPEVRKPGTSVKVSCKASGYTFKTYDLHWVRSVPGQGLQWMGWISHEGDKKVIVERFKAKVTITRDRSTNTAYLQLSGLTSGDTAVYYCAKGSKHRLRDYALYDDDGALNWAVDVDYLSNLEFWGQGTAVTVSS VL: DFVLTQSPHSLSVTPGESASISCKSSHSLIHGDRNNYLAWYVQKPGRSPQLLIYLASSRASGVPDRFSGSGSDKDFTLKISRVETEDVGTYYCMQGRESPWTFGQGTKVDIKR	2.51
MS-76 (antibody, V domains shown) VH: QVQLVQSGPEVRKPGTSVKVSCKAPGYTLKTYDLHWVRSVPGQGLQWMGWISHEGDKKVIVERFKAKVTIDWDRSTNTAYLQLSGLTSGDTAVYYCAKGSKHRLRDYALYDDDGALNWAVDVDYLSNLEFWGQGTAVTVSS VL: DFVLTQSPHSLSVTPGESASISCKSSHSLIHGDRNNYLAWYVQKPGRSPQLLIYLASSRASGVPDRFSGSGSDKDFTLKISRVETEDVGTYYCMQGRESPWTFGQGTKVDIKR	0.842
MS-72 (antibody, V domains shown) VH: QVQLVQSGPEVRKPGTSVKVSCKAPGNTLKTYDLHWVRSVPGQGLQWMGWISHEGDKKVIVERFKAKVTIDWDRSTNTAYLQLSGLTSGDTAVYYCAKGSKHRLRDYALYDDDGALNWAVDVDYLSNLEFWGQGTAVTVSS VL: DFVLTQSPHSLSVTPGESASISCKSSHSLIHGDRNNYLAWYVQKPGRSPQLLIYLASSRASGVPDRFSGSGSDTDFTLKISRVETEDVGTYYCMQGRESPWTFGQGTKVDIKR	1.16
MS-81 (antibody, V domains shown) VH: QVQLVQSGPEVRKPGTSVKVSCKAPGNTLKTYDLHWVRSVPGQGLQWMGWISHEGDKKVIVERFKAKVTIDWDRSTNTAYLELSGLTSGDTAVYYCAKGSKHRLRDYALYDDDGALNWAVDVDYLSNLEFWGQGTAVTVSS VL: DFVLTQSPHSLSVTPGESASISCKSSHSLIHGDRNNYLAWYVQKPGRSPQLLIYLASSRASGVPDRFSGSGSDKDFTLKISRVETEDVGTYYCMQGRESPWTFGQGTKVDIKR	0.897
MS-78 (antibody, V domains shown) VH: QVQLVQSGPEVRKPGTSVKVSCKAPGNTLKTYDLHWVRSVPGQGLEWMGWISHEGDKKVIVERFKAKVTIDWDRSTNTAYLQLSGLTSGDTAVYYCAKGSKHRLRDYALYDDDGALNWAVDVDYLSNLEFWGQGTAVTVSS VL: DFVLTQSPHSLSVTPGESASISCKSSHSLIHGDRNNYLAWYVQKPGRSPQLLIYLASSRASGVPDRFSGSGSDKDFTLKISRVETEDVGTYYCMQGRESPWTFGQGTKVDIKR	0.841
MS-74 (antibody, V domains shown) VH: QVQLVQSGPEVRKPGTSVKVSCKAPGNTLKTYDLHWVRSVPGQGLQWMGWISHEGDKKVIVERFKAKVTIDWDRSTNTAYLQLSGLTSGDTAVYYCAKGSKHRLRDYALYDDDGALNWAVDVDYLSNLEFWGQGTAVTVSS VL: DFVLTQSPHSLSVTPGESASISCKSSHSLIHGDRNNYLAWYVQKPGRSPQLLIYLASSRASGVPDRFSGSGSDKDFTLKISRVETEDVGVYYCMQGRESPWTFGQGTKVDIKR	0.461
MS-79 (antibody, V domains shown) VH: QVQLVQSGPEVRKPGTSVKVSCKAPGNTLKTYDLHWVRSVPGQGLQWMGWISHEGDKKVIVERFKAKVTITWDRSTNTAYLQLSGLTSGDTAVYYCAKGSKHRLRDYALYDDDGALNWAVDVDYLSNLEFWGQGTAVTVSS VL: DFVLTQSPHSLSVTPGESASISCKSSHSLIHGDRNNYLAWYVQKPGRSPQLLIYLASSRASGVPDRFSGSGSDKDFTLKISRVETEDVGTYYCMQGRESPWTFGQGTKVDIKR	0.792
MS-92 (antibody, V domains shown) VH: QVQLVQSGPEVRKPGTSVKVSCKAPGNTLKTYDLHWVRSVPGQGLEWMGWISHEGDKKVIVERFKAKVTIDRDRSTNTAYLQLSGLRSGDTAVYYCAKGSKHRLRDYALYDDDGALNWAVDVDYLSNLEFWGQGTAVTVSS VL: DIVLTQSPHSLSVTPGESASISCKSSHSLIHGDRNNYLAWYVQKPGRSPQLLIYLASSRASGVPDRFSGSGSDKDFTLKISRVETEDVGTYYCMQGRESPWTFGQGTKVDIKR	1.16
